systemUnderTest: NEK1 (human) (UniProt Q96PY6)
Sequence (Q96PY6 whole entry, looked up): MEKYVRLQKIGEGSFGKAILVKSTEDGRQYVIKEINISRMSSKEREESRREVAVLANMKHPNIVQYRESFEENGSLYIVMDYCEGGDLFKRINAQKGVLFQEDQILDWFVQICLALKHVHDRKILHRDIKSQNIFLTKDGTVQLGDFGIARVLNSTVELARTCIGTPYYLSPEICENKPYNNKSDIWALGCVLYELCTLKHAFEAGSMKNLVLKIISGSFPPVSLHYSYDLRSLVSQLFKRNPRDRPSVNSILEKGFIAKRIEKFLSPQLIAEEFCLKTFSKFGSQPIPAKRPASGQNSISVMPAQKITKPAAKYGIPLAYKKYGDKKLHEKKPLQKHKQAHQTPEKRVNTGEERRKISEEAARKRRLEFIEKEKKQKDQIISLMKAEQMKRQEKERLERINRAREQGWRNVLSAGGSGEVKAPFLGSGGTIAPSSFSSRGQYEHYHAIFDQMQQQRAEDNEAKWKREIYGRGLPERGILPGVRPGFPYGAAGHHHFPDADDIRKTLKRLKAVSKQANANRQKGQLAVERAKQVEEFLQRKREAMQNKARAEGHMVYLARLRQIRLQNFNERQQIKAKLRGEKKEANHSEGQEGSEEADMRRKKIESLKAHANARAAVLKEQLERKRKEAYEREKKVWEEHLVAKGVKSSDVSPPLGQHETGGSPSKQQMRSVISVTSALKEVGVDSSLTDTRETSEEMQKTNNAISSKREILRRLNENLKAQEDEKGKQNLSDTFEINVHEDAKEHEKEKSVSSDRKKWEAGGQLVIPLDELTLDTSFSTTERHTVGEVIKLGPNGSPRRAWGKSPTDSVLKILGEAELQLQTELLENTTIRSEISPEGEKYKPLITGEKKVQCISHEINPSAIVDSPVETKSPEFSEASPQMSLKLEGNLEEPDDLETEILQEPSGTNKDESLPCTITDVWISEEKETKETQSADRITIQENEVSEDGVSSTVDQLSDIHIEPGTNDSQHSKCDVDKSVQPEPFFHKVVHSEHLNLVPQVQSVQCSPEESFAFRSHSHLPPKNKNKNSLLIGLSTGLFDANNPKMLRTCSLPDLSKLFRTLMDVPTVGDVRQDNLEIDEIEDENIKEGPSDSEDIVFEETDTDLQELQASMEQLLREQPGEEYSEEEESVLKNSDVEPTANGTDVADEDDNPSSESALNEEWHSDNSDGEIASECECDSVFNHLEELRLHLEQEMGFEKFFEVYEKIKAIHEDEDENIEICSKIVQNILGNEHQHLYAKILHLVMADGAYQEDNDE
experimentNotes: Caliper, Mobility shift assay off-chip
experimentalSetup: compound 0.2 µM
Overview of recorded inhibition for various molecules

structureSmilesString	systemUnderTest	inhibition, %
CCN(CC)CCNC(=O)c1c(C)[nH]c(/C=C2\C(=O)Nc3ccc(F)cc32)c1C	NEK1 (human) (UniProt Q96PY6)	-2.4
CNC(=O)c1cc(Oc2ccc(NC(=O)Nc3ccc(Cl)c(C(F)(F)F)c3)cc2)ccn1	NEK1 (human) (UniProt Q96PY6)	-6.3
Cc1ccc(Nc2nccc(N(C)c3ccc4c(C)n(C)nc4c3)n2)cc1S(N)(=O)=O	NEK1 (human) (UniProt Q96PY6)	3.5
COc1cc2c(Oc3ccc4[nH]c(C)cc4c3F)ncnc2cc1OCCCN1CCCC1	NEK1 (human) (UniProt Q96PY6)	-4.5

----------
systemUnderTest: PLK1 (human)
experimentNotes: Caliper, Mobility shift assay off-chip
experimentalSetup: compound 0.2 µM
reportedProperty: inhibition (%)

structureSmilesString	systemUnderTest	reportedProperty	observedMeasurement
COc1cc2c(Oc3ccc4[nH]c(C)cc4c3F)ncnc2cc1OCCCN1CCCC1	PLK1 (human)	inhibition	-2
CNC(=O)c1cc(Oc2ccc(NC(=O)Nc3ccc(Cl)c(C(F)(F)F)c3)cc2)ccn1	PLK1 (human)	inhibition	-3.7
CCN(CC)CCNC(=O)c1c(C)[nH]c(/C=C2\C(=O)Nc3ccc(F)cc32)c1C	PLK1 (human)	inhibition	-3.4
Cc1ccc(Nc2nccc(N(C)c3ccc4c(C)n(C)nc4c3)n2)cc1S(N)(=O)=O	PLK1 (human)	inhibition	-2.2

----------
Overview of recorded inhibition for various compounds
systemUnderTest: DDR1 (human) (UniProt Q08345)
Sequence (Q08345 whole entry, looked up): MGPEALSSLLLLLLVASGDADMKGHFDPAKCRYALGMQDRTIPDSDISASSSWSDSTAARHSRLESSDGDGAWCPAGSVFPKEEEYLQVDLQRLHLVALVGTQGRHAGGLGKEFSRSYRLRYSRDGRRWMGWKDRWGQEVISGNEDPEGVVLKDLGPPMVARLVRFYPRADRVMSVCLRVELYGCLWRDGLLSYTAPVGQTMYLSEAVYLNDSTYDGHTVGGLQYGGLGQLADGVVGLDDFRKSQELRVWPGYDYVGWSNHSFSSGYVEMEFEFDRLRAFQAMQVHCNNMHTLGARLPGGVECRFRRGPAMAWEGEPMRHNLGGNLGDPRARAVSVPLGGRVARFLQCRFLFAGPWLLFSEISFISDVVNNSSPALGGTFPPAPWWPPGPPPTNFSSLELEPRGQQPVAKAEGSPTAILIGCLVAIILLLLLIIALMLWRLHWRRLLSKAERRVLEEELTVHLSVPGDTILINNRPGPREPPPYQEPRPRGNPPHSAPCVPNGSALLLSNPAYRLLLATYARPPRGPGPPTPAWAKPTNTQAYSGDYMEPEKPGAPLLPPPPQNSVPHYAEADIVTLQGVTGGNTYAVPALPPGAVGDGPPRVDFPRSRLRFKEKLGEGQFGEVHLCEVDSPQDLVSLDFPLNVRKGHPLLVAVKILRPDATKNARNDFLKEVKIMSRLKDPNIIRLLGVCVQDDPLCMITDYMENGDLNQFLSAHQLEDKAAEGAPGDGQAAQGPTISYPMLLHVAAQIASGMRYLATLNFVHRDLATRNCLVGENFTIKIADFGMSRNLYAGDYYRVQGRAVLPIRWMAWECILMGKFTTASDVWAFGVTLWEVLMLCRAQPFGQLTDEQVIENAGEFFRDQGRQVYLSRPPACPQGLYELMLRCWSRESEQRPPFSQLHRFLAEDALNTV
experimentNotes: Caliper, Mobility shift assay off-chip
experimentalSetup: compound 0.02 µM

structureSmilesString	inhibition
Cc1ccc(Nc2nccc(N(C)c3ccc4c(C)n(C)nc4c3)n2)cc1S(N)(=O)=O	19.6%
CNC(=O)c1cc(Oc2ccc(NC(=O)Nc3ccc(Cl)c(C(F)(F)F)c3)cc2)ccn1	4.2%
CNC(=O)c1ccccc1Sc1ccc2c(/C=C/c3ccccn3)n[nH]c2c1	1.9%
COc1cc2c(Oc3ccc4[nH]c(C)cc4c3F)ncnc2cc1OCCCN1CCCC1	25.7%

----------
Overview of recorded inhibition for various molecules
systemUnderTest: PRKX (human)
experimentNotes: Caliper, Mobility shift assay off-chip
experimentalSetup: compound 0.02 µM

structureSmilesString	quantityUnit	inhibition
CNC(=O)c1ccccc1Sc1ccc2c(/C=C/c3ccccn3)n[nH]c2c1	%	-1.7
CNC(=O)c1cc(Oc2ccc(NC(=O)Nc3ccc(Cl)c(C(F)(F)F)c3)cc2)ccn1	%	-7
Cc1ccc(Nc2nccc(N(C)c3ccc4c(C)n(C)nc4c3)n2)cc1S(N)(=O)=O	%	-0.6
COc1cc2c(Oc3ccc4[nH]c(C)cc4c3F)ncnc2cc1OCCCN1CCCC1	%	1.7

----------
systemUnderTest: UniProt P00540
Sequence (P00540 whole entry, looked up): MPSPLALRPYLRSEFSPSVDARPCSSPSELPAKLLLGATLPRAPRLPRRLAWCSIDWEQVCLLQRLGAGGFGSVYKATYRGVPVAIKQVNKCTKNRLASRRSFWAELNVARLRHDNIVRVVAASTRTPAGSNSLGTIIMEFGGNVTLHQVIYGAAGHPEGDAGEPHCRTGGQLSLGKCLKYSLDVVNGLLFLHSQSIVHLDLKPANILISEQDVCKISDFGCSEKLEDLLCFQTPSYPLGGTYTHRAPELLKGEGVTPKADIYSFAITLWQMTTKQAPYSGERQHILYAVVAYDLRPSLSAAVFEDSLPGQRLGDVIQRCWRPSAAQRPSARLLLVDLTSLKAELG
experimentNotes: ELISA
experimentalSetup: compound 0.02 µM
Overview of recorded inhibition for various molecules
reportedProperty: inhibition (%)

structureSmilesString	reportedProperty	observedMeasurement
CNC(=O)c1cc(Oc2ccc(NC(=O)Nc3ccc(Cl)c(C(F)(F)F)c3)cc2)ccn1	inhibition	3
Cc1ccc(Nc2nccc(N(C)c3ccc4c(C)n(C)nc4c3)n2)cc1S(N)(=O)=O	inhibition	-6.8
COc1cc2c(Oc3ccc4[nH]c(C)cc4c3F)ncnc2cc1OCCCN1CCCC1	inhibition	4.2
CNC(=O)c1ccccc1Sc1ccc2c(/C=C/c3ccccn3)n[nH]c2c1	inhibition	-15.4

----------
Overview of recorded inhibition for various compounds
systemUnderTest: UniProt:Q9NRA0
experimentNotes: Caliper, Mobility shift assay off-chip
experimentalSetup: compound 0.02 µM

structureSmilesString	inhibition [%]
Cc1ccc(Nc2nccc(N(C)c3ccc4c(C)n(C)nc4c3)n2)cc1S(N)(=O)=O	4.3
CNC(=O)c1cc(Oc2ccc(NC(=O)Nc3ccc(Cl)c(C(F)(F)F)c3)cc2)ccn1	-6
CNC(=O)c1ccccc1Sc1ccc2c(/C=C/c3ccccn3)n[nH]c2c1	-4.8
COc1cc2c(Oc3ccc4[nH]c(C)cc4c3F)ncnc2cc1OCCCN1CCCC1	6.4

----------
systemUnderTest: NUAK1 (human)
experimentNotes: Caliper, Mobility shift assay off-chip
experimentalSetup: compound 0.02 µM
Overview of recorded inhibition for various compounds

structureSmilesString	inhibition (%)
CNC(=O)c1ccccc1Sc1ccc2c(/C=C/c3ccccn3)n[nH]c2c1	-1.9
Cc1ccc(Nc2nccc(N(C)c3ccc4c(C)n(C)nc4c3)n2)cc1S(N)(=O)=O	-7.8
CNC(=O)c1cc(Oc2ccc(NC(=O)Nc3ccc(Cl)c(C(F)(F)F)c3)cc2)ccn1	-3.8
COc1cc2c(Oc3ccc4[nH]c(C)cc4c3F)ncnc2cc1OCCCN1CCCC1	8.9

----------
systemUnderTest: UniProt P41743
Sequence (P41743 whole entry, looked up): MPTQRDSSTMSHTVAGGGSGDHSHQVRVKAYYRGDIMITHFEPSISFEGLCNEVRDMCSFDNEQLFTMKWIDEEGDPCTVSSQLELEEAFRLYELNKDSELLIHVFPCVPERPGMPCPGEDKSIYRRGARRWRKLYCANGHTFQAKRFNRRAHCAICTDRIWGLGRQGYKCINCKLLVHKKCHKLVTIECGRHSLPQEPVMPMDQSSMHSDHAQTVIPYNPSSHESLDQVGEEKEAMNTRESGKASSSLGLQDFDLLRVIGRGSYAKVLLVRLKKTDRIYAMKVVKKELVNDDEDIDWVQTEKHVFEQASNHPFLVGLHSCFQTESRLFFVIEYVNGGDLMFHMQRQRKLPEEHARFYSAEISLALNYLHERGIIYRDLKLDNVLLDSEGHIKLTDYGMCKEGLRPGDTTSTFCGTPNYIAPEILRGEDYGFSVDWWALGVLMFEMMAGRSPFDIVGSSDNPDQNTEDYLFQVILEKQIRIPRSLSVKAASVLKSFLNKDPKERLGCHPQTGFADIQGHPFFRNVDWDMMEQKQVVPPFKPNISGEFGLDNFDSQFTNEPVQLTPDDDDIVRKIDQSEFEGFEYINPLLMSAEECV
experimentNotes: Caliper, Mobility shift assay off-chip
experimentalSetup: compound 0.2 µM
Overview of recorded inhibition for various compounds

structureSmilesString	inhibition
CNC(=O)c1cc(Oc2ccc(NC(=O)Nc3ccc(Cl)c(C(F)(F)F)c3)cc2)ccn1	5.7%
CCN(CC)CCNC(=O)c1c(C)[nH]c(/C=C2\C(=O)Nc3ccc(F)cc32)c1C	-2%
COc1cc2c(Oc3ccc4[nH]c(C)cc4c3F)ncnc2cc1OCCCN1CCCC1	6%
Cc1ccc(Nc2nccc(N(C)c3ccc4c(C)n(C)nc4c3)n2)cc1S(N)(=O)=O	2.1%

----------
systemUnderTest: RAF1 (human) (UniProt P04049)
Sequence (P04049 whole entry, looked up): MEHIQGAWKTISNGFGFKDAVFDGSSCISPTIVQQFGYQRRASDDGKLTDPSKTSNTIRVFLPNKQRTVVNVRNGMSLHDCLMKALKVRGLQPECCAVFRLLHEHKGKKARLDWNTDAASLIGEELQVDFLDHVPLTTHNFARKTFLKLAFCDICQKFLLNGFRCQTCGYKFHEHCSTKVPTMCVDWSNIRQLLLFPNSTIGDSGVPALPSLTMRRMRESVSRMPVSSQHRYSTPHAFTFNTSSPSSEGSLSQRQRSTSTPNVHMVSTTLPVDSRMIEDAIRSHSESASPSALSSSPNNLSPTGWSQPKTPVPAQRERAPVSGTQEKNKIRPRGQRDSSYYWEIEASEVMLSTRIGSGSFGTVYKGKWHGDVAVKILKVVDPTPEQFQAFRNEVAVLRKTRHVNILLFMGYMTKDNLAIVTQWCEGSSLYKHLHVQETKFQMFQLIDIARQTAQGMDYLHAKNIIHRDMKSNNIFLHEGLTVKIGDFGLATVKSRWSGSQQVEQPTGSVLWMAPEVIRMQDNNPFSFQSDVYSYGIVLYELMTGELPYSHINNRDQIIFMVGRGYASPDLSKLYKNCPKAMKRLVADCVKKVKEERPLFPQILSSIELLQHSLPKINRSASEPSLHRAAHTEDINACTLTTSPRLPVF
experimentNotes: ELISA
experimentalSetup: compound 0.2 µM

structureSmilesString	inhibition (%)
Cc1ccc(Nc2nccc(N(C)c3ccc4c(C)n(C)nc4c3)n2)cc1S(N)(=O)=O	77.8
CCN(CC)CCNC(=O)c1c(C)[nH]c(/C=C2\C(=O)Nc3ccc(F)cc32)c1C	-61.4
COc1cc2c(Oc3ccc4[nH]c(C)cc4c3F)ncnc2cc1OCCCN1CCCC1	-1.7
CNC(=O)c1cc(Oc2ccc(NC(=O)Nc3ccc(Cl)c(C(F)(F)F)c3)cc2)ccn1	88.1

----------
Overview of recorded inhibition for various compounds
systemUnderTest: MAPK12 (human) (UniProt P53778)
Sequence (P53778 whole entry, looked up): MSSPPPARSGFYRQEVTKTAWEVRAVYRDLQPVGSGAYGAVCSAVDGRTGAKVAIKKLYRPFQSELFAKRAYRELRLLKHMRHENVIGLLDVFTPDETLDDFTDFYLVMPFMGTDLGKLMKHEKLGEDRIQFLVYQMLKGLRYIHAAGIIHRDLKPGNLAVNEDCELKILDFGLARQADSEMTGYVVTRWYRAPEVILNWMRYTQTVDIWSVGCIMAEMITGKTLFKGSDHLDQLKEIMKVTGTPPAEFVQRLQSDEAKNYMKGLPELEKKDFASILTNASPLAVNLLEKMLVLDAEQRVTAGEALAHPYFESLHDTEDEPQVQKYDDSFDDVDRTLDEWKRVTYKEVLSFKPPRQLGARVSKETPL
experimentNotes: Caliper, Mobility shift assay off-chip
experimentalSetup: compound 0.02 µM

structureSmilesString	inhibition, %
COc1cc2c(Oc3ccc4[nH]c(C)cc4c3F)ncnc2cc1OCCCN1CCCC1	-4.8
Cc1ccc(Nc2nccc(N(C)c3ccc4c(C)n(C)nc4c3)n2)cc1S(N)(=O)=O	-6.3
CNC(=O)c1cc(Oc2ccc(NC(=O)Nc3ccc(Cl)c(C(F)(F)F)c3)cc2)ccn1	-5.9
CNC(=O)c1ccccc1Sc1ccc2c(/C=C/c3ccccn3)n[nH]c2c1	-4.6

----------
Overview of recorded inhibition for various compounds
systemUnderTest: CAMK2D (human)
experimentNotes: Caliper, Mobility shift assay off-chip
experimentalSetup: compound 0.2 µM

structureSmilesString	quantityUnit	inhibition
CNC(=O)c1cc(Oc2ccc(NC(=O)Nc3ccc(Cl)c(C(F)(F)F)c3)cc2)ccn1	%	5.2
CCN(CC)CCNC(=O)c1c(C)[nH]c(/C=C2\C(=O)Nc3ccc(F)cc32)c1C	%	88.8
COc1cc2c(Oc3ccc4[nH]c(C)cc4c3F)ncnc2cc1OCCCN1CCCC1	%	3.9
Cc1ccc(Nc2nccc(N(C)c3ccc4c(C)n(C)nc4c3)n2)cc1S(N)(=O)=O	%	4.6

----------
systemUnderTest: PAK7 (human)
experimentNotes: Caliper, Mobility shift assay off-chip
experimentalSetup: compound 0.2 µM
reportedProperty: inhibition (%)

structureSmilesString	reportedProperty	observedMeasurement
CCN(CC)CCNC(=O)c1c(C)[nH]c(/C=C2\C(=O)Nc3ccc(F)cc32)c1C	inhibition	20.1
COc1cc2c(Oc3ccc4[nH]c(C)cc4c3F)ncnc2cc1OCCCN1CCCC1	inhibition	7.3
Cc1ccc(Nc2nccc(N(C)c3ccc4c(C)n(C)nc4c3)n2)cc1S(N)(=O)=O	inhibition	1.3
CNC(=O)c1cc(Oc2ccc(NC(=O)Nc3ccc(Cl)c(C(F)(F)F)c3)cc2)ccn1	inhibition	-1.8

----------
Overview of recorded inhibition for various compounds
systemUnderTest: PRKCD (human) (UniProt Q05655)
Sequence (Q05655 whole entry, looked up): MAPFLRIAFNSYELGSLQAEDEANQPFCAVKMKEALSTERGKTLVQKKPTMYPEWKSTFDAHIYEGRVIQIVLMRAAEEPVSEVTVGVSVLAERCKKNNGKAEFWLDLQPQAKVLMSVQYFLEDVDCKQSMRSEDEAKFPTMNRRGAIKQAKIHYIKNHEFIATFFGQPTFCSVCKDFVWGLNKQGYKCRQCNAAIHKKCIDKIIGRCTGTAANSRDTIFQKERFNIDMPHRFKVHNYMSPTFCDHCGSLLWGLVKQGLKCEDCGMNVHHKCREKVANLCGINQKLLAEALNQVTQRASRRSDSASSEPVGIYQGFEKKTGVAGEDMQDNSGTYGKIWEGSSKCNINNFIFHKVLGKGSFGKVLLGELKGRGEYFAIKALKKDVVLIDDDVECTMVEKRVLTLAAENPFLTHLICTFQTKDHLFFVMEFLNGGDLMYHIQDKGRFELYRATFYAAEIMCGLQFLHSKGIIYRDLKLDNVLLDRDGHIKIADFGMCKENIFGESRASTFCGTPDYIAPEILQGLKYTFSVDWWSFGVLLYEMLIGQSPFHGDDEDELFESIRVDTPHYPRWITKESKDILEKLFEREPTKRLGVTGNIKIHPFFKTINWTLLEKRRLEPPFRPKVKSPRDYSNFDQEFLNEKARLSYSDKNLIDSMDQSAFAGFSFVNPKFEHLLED
experimentNotes: Caliper, Mobility shift assay off-chip
experimentalSetup: compound 0.2 µM
reportedProperty: inhibition

structureSmilesString	observedMeasurement
Cc1ccc(Nc2nccc(N(C)c3ccc4c(C)n(C)nc4c3)n2)cc1S(N)(=O)=O	-4.4%
CCN(CC)CCNC(=O)c1c(C)[nH]c(/C=C2\C(=O)Nc3ccc(F)cc32)c1C	0.9%
COc1cc2c(Oc3ccc4[nH]c(C)cc4c3F)ncnc2cc1OCCCN1CCCC1	-2.2%
CNC(=O)c1cc(Oc2ccc(NC(=O)Nc3ccc(Cl)c(C(F)(F)F)c3)cc2)ccn1	11.7%

----------
Overview of recorded inhibition for various molecules
systemUnderTest: UniProt P51813
experimentNotes: Caliper, Mobility shift assay off-chip
experimentalSetup: compound 0.02 µM

structureSmilesString	systemUnderTest	inhibition (%)
Cc1ccc(Nc2nccc(N(C)c3ccc4c(C)n(C)nc4c3)n2)cc1S(N)(=O)=O	UniProt P51813	6.9
COc1cc2c(Oc3ccc4[nH]c(C)cc4c3F)ncnc2cc1OCCCN1CCCC1	UniProt P51813	8.4
CNC(=O)c1cc(Oc2ccc(NC(=O)Nc3ccc(Cl)c(C(F)(F)F)c3)cc2)ccn1	UniProt P51813	0.1
CNC(=O)c1ccccc1Sc1ccc2c(/C=C/c3ccccn3)n[nH]c2c1	UniProt P51813	4.9
